Measured values drawn from the kinase profiling compilation of Christmann-Franck et al. (2016) for this set.

# MEASURED_ON: UniProt:Q9HAZ1
# Sequence (Q9HAZ1 whole entry, looked up): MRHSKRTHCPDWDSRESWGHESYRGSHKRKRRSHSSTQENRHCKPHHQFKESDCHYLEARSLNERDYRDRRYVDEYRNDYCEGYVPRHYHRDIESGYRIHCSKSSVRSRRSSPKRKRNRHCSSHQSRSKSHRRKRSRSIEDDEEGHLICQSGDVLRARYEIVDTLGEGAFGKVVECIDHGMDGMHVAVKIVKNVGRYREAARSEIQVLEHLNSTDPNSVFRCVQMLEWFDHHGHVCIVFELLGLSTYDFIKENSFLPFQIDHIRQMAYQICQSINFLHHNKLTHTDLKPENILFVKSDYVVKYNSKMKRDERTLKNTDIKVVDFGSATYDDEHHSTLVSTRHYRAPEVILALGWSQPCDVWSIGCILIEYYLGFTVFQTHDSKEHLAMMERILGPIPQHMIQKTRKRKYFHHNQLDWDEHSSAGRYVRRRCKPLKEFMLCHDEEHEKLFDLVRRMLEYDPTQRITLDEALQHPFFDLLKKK
# ASSAY_REMARKS: radiometric filter-binding kinase assay, Kinase HotSpot
# CONDITION_INFO: compound 0.5 µM; ATP 10 µM
Collected residual activity values appear next to each entry.
READOUT: residual activity (%)

- C#Cc1cccc(Nc2ncnc3cc(OCCOC)c(OCCOC)cc23)c1: 101
- O=C(Nc1ccc(Cl)cc1)c1ccccc1NCc1ccncc1: 107
- CCN1/C(=C/C(C)=O)Sc2ccc(OC)cc21: 18.5
- CC(C)(C)c1nc2c3ccc(F)cc3c3c(=O)[nH]ccc3c2[nH]1: 70.7
- O=c1cc(N2CCNCC2)oc2c(-c3ccccc3)cccc12: 88.9
- CS(=O)c1ccc(-c2nc(-c3ccc(F)cc3)c(-c3ccncc3)[nH]2)cc1 (configuration not stated): 98.7
- CC(C)[C@H](CO)Nc1nc(Nc2cccc(Cl)c2)c2ncn(C(C)C)c2n1: 50.9
- Clc1ccc(Nc2nnc(Cc3ccncc3)c3ccccc23)cc1: 108
- Oc1ccc(-c2nc(-c3ccc(F)cc3)c(-c3ccncc3)[nH]2)cc1: 106
- CCCNC(=O)Nc1ccc(Oc2ncnc3cc(OC)c(OC)cc23)cc1Cl: 94.2
- NC(=O)c1ccc(N(C(N)=O)c2c(F)cccc2F)nc1-c1ccc(F)cc1F: 114
- COc1ccc(-c2cnc3c(-c4ccsc4)cnn3c2)cc1: 62
- Nc1n[nH]c2nnc(-c3c(-c4ccccc4)nn4ccccc34)cc12: 101
- O=C(NC(NC(=S)Nc1ccc(F)c([N+](=O)[O-])c1)C(Cl)(Cl)Cl)C(c1ccccc1)c1ccccc1 (configuration not stated): 105
- CC(C)n1cnc2c(Nc3cccc(Cl)c3)nc(NCCO)nc21: 36.1
- O=C1Nc2cc(Br)ccc2/C1=C1/Nc2ccccc2/C1=N\O: 97
- COc1cc2nccc(Oc3ccc(NC(=S)NC(=O)c4ccccc4C)cc3)c2cc1OC: 87.8
- O=c1cc(-c2cccc3c2Sc2ccccc2S3)oc(N2CCOCC2)c1: 101
- O=C1Cc2c([nH]c3ccc([N+](=O)[O-])cc23)-c2ccccc2N1: 86.4
- CSc1nc(-c2ccc(F)cc2)c(-c2ccnc(NC(C)c3ccccc3)c2)[nH]1 (configuration not stated): 79.2
- Cc1cc2ncc(-c3ccccc3)nc2cc1C: 96
- Nc1nc(Nc2ccc(S(N)(=O)=O)cc2)nn1C(=S)Nc1c(F)cccc1F: 1.92
